# SYSTEM TESTED: bovine cardiac myofibrils (full-length cardiac myosin ATPase in the native sarcomere) (Bos taurus (Bovine))
# PROCEDURE DETAILS: Skinned bovine cardiac myofibril ATPase assay (PK/LDH-coupled)
# Type: biochemical
# MEASUREMENT CONDITIONS: Ca2+ activating to 75% of maximal rate, concentration giving 15% inhibition
PROPERTY LABEL: CDMF75 IC15 (nM)

Please review the entries below; each comes with its answer.
CCc1nc(-c2ccc3c(c2)OC[C@H]3NC(=O)N2CC(O)C2)no1 :: 1900
CC(C)(O)C(=O)N[C@@H]1CCc2cc(-c3noc(C(F)F)n3)ccc21 :: 39200
CC(=O)N[C@@H]1CCc2cc(-c3noc(C4CC4)n3)ccc21 :: 1200

[1] Cc1cc(C(=O)N[C@@H]2COc3cc(-c4noc(C)n4)ccc32)on1
[2] CCc1nc(-c2ccc3c(c2)CC[C@H]3NC(=O)c2cnco2)no1 [Compound 584]
[3] Cc1ncoc1C(=O)NC1CCc2cc(-c3noc(C(F)F)n3)ccc21 (stereo not drawn)
[4] CCc1nc(-c2ccc3c(c2)CC[C@H]3NC(=O)[C@@H]2CCNC(=O)C2)no1
Qu. Rank ascending by CDMF75 IC15. Provide the ranking by listing each label in its place in the requested order.
Ans. 2, 3, 1, 4
(2: 300 nM, 3: 600 nM, 1: 900 nM, 4: 18800 nM)

[1] CCc1nc(-c2ccc3c(c2)CC[C@H]3NC(=O)c2ccnc(CO)c2)no1
[2] CCc1nc(-c2cc(Cl)c3c(c2)CC[C@H]3NC(=O)c2cnn(C)c2)no1
Qu. For the pair 1 and 2 , which entry has the numerically smaller recorded CDMF75 IC15? Your answer should be the label attached to the chosen record.
Ans. 1

----------
# SYSTEM TESTED: bovine cardiac myofibrils (full-length cardiac myosin ATPase in the native sarcomere) (Bos taurus (Bovine), UniProt Q9BE39)
# Sequence (Q9BE39 whole entry): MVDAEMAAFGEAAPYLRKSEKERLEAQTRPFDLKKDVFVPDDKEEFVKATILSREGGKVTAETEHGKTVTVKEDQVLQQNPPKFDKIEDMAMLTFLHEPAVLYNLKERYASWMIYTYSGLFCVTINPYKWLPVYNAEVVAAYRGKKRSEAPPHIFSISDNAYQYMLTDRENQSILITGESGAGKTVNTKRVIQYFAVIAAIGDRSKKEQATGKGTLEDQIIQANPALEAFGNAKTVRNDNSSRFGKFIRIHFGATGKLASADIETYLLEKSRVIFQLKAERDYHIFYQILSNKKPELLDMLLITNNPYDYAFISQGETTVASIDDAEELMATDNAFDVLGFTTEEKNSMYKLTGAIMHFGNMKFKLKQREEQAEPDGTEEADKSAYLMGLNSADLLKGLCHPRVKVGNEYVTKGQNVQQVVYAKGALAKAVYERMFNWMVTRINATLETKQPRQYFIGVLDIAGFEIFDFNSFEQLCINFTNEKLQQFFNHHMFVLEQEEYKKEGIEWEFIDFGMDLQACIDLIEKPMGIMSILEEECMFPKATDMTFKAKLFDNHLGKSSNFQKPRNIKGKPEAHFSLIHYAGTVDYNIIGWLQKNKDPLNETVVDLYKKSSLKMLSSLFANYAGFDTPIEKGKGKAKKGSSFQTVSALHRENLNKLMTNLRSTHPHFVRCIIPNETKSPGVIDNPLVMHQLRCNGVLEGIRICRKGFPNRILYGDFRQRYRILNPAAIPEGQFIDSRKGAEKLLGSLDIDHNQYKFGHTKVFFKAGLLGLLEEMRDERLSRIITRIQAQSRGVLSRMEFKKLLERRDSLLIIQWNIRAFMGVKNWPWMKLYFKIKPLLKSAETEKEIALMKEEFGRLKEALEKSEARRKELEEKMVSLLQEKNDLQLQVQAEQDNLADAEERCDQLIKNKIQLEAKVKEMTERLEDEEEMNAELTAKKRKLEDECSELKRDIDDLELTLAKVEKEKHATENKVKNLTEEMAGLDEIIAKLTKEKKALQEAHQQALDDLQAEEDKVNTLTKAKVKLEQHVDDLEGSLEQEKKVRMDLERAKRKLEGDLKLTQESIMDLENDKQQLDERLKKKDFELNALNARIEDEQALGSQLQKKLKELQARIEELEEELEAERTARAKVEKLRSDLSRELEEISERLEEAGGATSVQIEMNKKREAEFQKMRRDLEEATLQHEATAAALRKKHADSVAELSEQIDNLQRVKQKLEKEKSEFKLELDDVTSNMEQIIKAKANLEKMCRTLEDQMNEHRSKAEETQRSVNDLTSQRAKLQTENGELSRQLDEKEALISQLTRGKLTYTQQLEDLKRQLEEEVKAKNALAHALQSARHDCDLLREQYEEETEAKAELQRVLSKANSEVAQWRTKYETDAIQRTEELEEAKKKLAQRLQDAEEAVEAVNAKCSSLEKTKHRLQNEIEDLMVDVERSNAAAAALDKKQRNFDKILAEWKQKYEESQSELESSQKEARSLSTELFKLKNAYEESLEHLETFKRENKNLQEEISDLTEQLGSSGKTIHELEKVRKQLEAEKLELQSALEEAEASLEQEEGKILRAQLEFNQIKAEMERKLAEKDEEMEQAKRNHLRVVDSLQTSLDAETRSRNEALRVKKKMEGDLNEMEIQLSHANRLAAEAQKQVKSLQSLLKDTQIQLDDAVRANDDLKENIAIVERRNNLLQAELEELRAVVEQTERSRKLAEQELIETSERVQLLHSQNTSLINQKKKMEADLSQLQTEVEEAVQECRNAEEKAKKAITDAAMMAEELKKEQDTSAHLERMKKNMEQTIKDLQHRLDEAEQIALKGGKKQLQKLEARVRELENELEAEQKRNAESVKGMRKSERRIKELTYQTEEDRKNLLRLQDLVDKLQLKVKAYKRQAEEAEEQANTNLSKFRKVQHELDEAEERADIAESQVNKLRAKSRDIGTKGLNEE
# Sequence (P85100 whole entry partner): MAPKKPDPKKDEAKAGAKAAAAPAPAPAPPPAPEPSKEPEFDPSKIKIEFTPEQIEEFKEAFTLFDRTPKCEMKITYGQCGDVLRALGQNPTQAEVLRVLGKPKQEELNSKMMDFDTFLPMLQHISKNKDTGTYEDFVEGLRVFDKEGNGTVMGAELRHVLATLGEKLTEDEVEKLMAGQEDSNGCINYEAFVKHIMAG
# Sequence (Q3SZE5 whole entry partner): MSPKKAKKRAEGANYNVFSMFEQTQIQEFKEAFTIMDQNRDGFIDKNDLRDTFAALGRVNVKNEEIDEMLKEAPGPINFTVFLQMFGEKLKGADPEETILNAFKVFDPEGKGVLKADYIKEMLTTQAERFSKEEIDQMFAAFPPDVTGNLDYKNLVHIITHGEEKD
# PROCEDURE DETAILS: Skinned bovine cardiac myofibril ATPase assay (PK/LDH-coupled)
# MEASUREMENT CONDITIONS: Ca2+ activating to 75% of maximal rate, read-out: CDMF75 IC50
pIC50: −log10 of the molar value.
PROPERTY LABEL: pIC50

Please review the entries below; each comes with its answer.
CCc1nc(-c2ccc3c(c2)OC[C@H]3NC(=O)N(C)CCO)no1 :: 4.67
CC(C)c1nc(-c2ccc3c(c2)CC[C@H]3NC(=O)c2nn[nH]n2)no1 :: 4.41
Cc1nc(-c2ccc3c(c2)CC[C@H]3NC(=O)c2cn(C)nc2C)no1 :: 5.43
Cc1nc(-c2ccc3c(c2)CC[C@H]3NC(=O)c2cnn(C)c2)no1 :: 5.35
CC(=O)O[C@@H](C)c1nc(-c2ccc3c(c2)CC[C@H]3NC(=O)c2cnn(C)c2)no1 :: 4.76

[P] CCc1nc(-c2ccc3c(c2)CC[C@H]3NC(=O)c2ccnnc2C)no1
[Q] Cn1nnc(C(=O)N[C@@H]2CCc3cc(-c4nc(C(F)F)no4)ccc32)n1
[R] CCc1nc(-c2ccc3c(c2)OCC3NC(=O)c2ccnn2C)no1 (stereo not drawn)
Qu. Order these by pIC50, descending, and give the full ranking. Provide the ranking by listing each label in its place in the requested order.
Ans. R, Q, P
(R: 5.85, Q: 5.31, P: 4.94)
